Sourced from patent US20240228506A1

Reported values of pIC50 for individual entries
# targetOrSystem: GST-RIPK1 (recombinant GST-RIPK1 kinase domain (residues 1-327)) (Homo sapiens)
# Construct: recombinant GST-RIPK1 kinase domain (residues 1-327) enzyme
# protocolDetails: RIPK1-ADP-Glo enzymatic assay
# settings: 25 nM GST-RIPK1, 300 μM ATP, 3 μM dephosphorylated-MBP; 30 minutes pre-incubation, 150 minutes reaction; ten-point titration
pIC50: −log10 of the molar value.

compound: O=C(N1C[C@@H]2C[C@H]1c1cncc(C#CCC3(F)COC3)c1O2)C12CCC(F)(CC1)C2
pIC50: 7.02
//
compound: N#Cc1cncc2c1O[C@H]1C[C@@H]2N(C(=O)C23CCC(C2)OC3)C1 (single isomer, unassigned) [Compound 1-50]
pIC50: 6.52
//
compound: CC1(C(=O)N2C[C@@H]3C[C@H]2c2cncc(C#N)c2O3)CCCC1(F)F (single isomer, unassigned) [Compound 1-39]
pIC50: 7.51
//
compound: CC(C)(C(=O)N1C[C@@H]2C[C@H]1c1cncc(C#N)c1O2)C1CC1
pIC50: 7.54
//
compound: N#Cc1cncc2c1O[C@H]1C[C@@H]2N(C(=O)C2(F)CC(Oc3ccc(F)cc3F)C2)C1 (single isomer, unassigned) [Compound 1-106]
pIC50: 7.22
//
compound: CC(C)(C)C(=O)N1C[C@@H]2C[C@H]1c1cncc(C#Cc3ccccc3)c1O2
pIC50: 7.14
//
compound: O=C(N1C[C@@H]2C[C@H]1c1cncc(F)c1O2)C12CCC(CC1(F)F)C2 (single isomer, unassigned) [Compound 2-19]
pIC50: 6.34
//
compound: N#Cc1cncc2c1S[C@H]1C[C@@H]2N(C(=O)C23CCC(C(F)(F)F)(CC2)C3)C1
pIC50: 7.82
//
compound: CC(C)(CF)C(=O)N1C[C@@H]2C[C@H]1c1cncc(C#N)c1O2
pIC50: 6.94
//
compound: CC(C)C(C)(C)C(=O)N1C[C@@H]2C[C@H]1c1cncc(C#N)c1O2
pIC50: 7.62
//
compound: CCC(C)(C(=O)N1C[C@@H]2C[C@H]1c1cncc(C#N)c1O2)C(F)F (single isomer, unassigned) [Compound 1-85]
pIC50: 7.72
//
compound: CC(C)(C(=O)N1C[C@@H]2C[C@H]1c1cncc(C#Cc3ccc(C#N)nc3)c1O2)C(F)F
pIC50: 7.49
//
compound: N#Cc1cncc2c1O[C@H]1C[C@@H]2N(C(=O)C23CCC(CC2(F)F)C3)C1 (single isomer, unassigned) [Compound 1-48]
pIC50: 8.30
//
compound: Cc1ccc(C#Cc2cncc3c2O[C@H]2C[C@@H]3N(C(=O)C34CCC(C(F)(F)F)(CC3)C4)C2)cn1
pIC50: 7.77

* * *

# targetOrSystem: GST-RIPK1 (recombinant GST-RIPK1 kinase domain (residues 1-327)) (Homo sapiens, UniProt Q13546)
# Construct: recombinant GST-RIPK1 kinase domain (residues 1-327) enzyme
# protocolDetails: RIPK1-ADP-Glo enzymatic assay
# settings: 25 nM GST-RIPK1, 300 μM ATP, 3 μM dephosphorylated-MBP; 30 minutes pre-incubation, 150 minutes reaction; ten-point titration
quantityName: IC50

compound: N#Cc1cncc2c1O[C@H]1C[C@@H]2N(C(=O)C23CCC(CC2(F)F)C3)C1 (single isomer, unassigned) [Compound 1-49]
recordedMeasurement: 70 nM

compound: N#Cc1cncc2c1C[C@H]1C[C@@H]2N(C(=O)C23CCC(C(F)(F)F)(CC2)C3)C1 (single isomer, unassigned)
recordedMeasurement: 123 nM

compound: N#Cc1cncc2c1O[C@H]1C[C@@H]2N(C(=O)C23CCC(CO2)C3)C1
recordedMeasurement: 269 nM

compound: CC1(C(=O)N2C[C@@H]3C[C@H]2c2cncc(C#N)c2O3)CCCO1 (mixture of isomers)
recordedMeasurement: 729 nM

compound: O=C(N1C[C@@H]2C[C@H]1c1cncc(C#Cc3ncccn3)c1O2)C12CCC(C(F)(F)F)(CC1)C2
recordedMeasurement: 134 nM

compound: CC(C)(C(=O)N1C[C@@H]2C[C@H]1c1cc(F)cnc1O2)C(F)F
recordedMeasurement: 317 nM

compound: Cc1cccc(C#Cc2cncc3c2O[C@H]2C[C@@H]3N(C(=O)C34CCC(F)(CC3)C4)C2)c1
recordedMeasurement: 23 nM

compound: CC(C)(C(=O)N1C[C@@H]2C[C@H]1c1cncc(C#N)c1O2)C(F)F
recordedMeasurement: 32 nM

compound: CC1(C(=O)N2C[C@@H]3C[C@H]2c2cncc(C#N)c2O3)CCC(F)(F)C1 (stereo partly drawn)
recordedMeasurement: 66 nM

compound: CC(C)(Cc1ccccc1)C(=O)N1C[C@@H]2C[C@H]1c1cncc(C#N)c1O2
recordedMeasurement: 259 nM

compound: CC(C)(C(=O)N1C[C@@H]2C[C@H]1c1cncc(C#Cc3cncc(Cl)c3)c1O2)C(F)F
recordedMeasurement: 28 nM

compound: O=C(N1C[C@@H]2C[C@H]1c1cncc(C#Cc3cncnc3)c1O2)C12CCC(F)(CC1)C2
recordedMeasurement: 13 nM

compound: Cc1ncc2c(c1F)O[C@H]1C[C@@H]2N(C(=O)C23CCC(F)(CC2)C3)C1
recordedMeasurement: 59 nM

compound: N#Cc1cncc2c1O[C@H]1C[C@@H]2N(C(=O)[C@H]2C[C@@H](Oc3ccc(F)cc3F)C2)C1
recordedMeasurement: 132 nM

compound: N#Cc1cncc2c1O[C@H]1C[C@@H]2N(C(=O)C2(F)CCN(c3ncnc4scnc34)CC2)C1
recordedMeasurement: 35 nM

* * *

Reported values of pIC50 for individual entries
# targetOrSystem: GST-RIPK1 (recombinant GST-RIPK1 kinase domain (residues 1-327)) (Homo sapiens)
# Construct: recombinant GST-RIPK1 kinase domain (residues 1-327) enzyme
# Sequence (Q13546 1-327): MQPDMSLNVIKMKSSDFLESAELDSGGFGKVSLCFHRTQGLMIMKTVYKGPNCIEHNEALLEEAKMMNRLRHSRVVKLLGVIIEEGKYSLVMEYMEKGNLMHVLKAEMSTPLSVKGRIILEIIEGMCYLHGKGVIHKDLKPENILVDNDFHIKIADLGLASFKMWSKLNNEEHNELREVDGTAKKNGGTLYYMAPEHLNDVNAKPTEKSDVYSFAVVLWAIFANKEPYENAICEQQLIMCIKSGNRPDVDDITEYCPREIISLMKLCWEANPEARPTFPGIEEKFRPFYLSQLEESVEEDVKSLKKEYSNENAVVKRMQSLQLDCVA
# protocolDetails: RIPK1-ADP-Glo enzymatic assay
# settings: 25 nM GST-RIPK1, 300 μM ATP, 3 μM dephosphorylated-MBP; 30 minutes pre-incubation, 150 minutes reaction; ten-point titration
pIC50: −log10 of the molar value.

compound: N#Cc1cncc2c1OC[C@H]1CC[C@@H]2N1C(=O)C12CCC(F)(CC1)C2 [Compound 5-1]
pIC50: 7.02
//
compound: N#Cc1cncc2c1O[C@H]1C[C@@H]2N(C(=O)C23CCC(C2)C3)C1 [Compound 1-31]
pIC50: 7.27
//
compound: O=C(N1C[C@@H]2C[C@H]1c1cncc(C#CC3COC3)c1O2)C12CCC(F)(CC1)C2 [Compound 2-119]
pIC50: 7.24
//
compound: CC(C)(C(=O)N1C[C@@H]2C[C@H]1c1cncc(C#Cc3cncc(C#N)c3)c1O2)C(F)F [Compound 2-85]
pIC50: 7.42
//
compound: O=C(N1C[C@@H]2C[C@H]1c1cncc(C#Cc3ccncn3)c1O2)C12CCC(C(F)(F)F)(CC1)C2 [Compound 2-67]
pIC50: 7.49
//
compound: CCC(F)(F)C(C)(C)C(=O)N1C[C@@H]2C[C@H]1c1cncc(C#N)c1O2 [Compound 1-43]
pIC50: 6.31
//
compound: C[C@@H]1C2CN(C(=O)C34CCC(C(F)(F)F)(CC3)C4)[C@H]1c1cncc(C#N)c1O2 (single isomer, unassigned) [Compound 5-4]
pIC50: 6.78

* * *

# targetOrSystem: GST-RIPK1 (recombinant GST-RIPK1 kinase domain (residues 1-327)) (Homo sapiens)
# Construct: recombinant GST-RIPK1 kinase domain (residues 1-327) enzyme; made in house; host or cells: baculovirus-transfected Sf21 insect cells
# protocolDetails: RIPK1-ADP-Glo enzymatic assay
# Type: biochemical
# settings: 25 nM GST-RIPK1, 300 μM ATP, 3 μM dephosphorylated-MBP; 30 minutes pre-incubation, 150 minutes reaction; ten-point titration
Reported values of IC50 for individual entries
quantityName: IC50 (nM)

compound: N#Cc1cncc2c1O[C@H]1C[C@@H]2N(C(=O)C23CCC(F)(CC2)CC3)C1
targetOrSystem: GST-RIPK1 (recombinant GST-RIPK1 kinase domain (residues 1-327)) (Homo sapiens)
unitName: nM
recordedMeasurement: 58

compound: CC12CCC(C(=O)N3C[C@@H]4C[C@H]3c3cncc(C#N)c3O4)(CC1)C2
targetOrSystem: GST-RIPK1 (recombinant GST-RIPK1 kinase domain (residues 1-327)) (Homo sapiens)
unitName: nM
recordedMeasurement: 15

compound: N#Cc1cncc2c1O[C@H]1C[C@@H]2N(C(=O)C2(F)CC(Oc3ccc(F)cc3F)C2)C1 (single isomer, unassigned) [Compound 1-107]
targetOrSystem: GST-RIPK1 (recombinant GST-RIPK1 kinase domain (residues 1-327)) (Homo sapiens)
unitName: nM
recordedMeasurement: 23

compound: CC1(C(=O)N2C[C@@H]3C[C@H]2c2cncc(C#N)c2O3)CC(F)(F)C1
targetOrSystem: GST-RIPK1 (recombinant GST-RIPK1 kinase domain (residues 1-327)) (Homo sapiens)
unitName: nM
recordedMeasurement: 139
